- assay-target: recombinant Plk1 (Homo sapiens)
- assay-text: In Vitro Plk1 Enzyme Assay (SPA, GST-Cdc25C phosphorylation)
- condition-notes: ATP 64 nM, 90 minutes, read-out: IC50 (Plk1 enzyme inhibition)
pIC50: −log10 of the molar value.
property-name: pIC50

CN1C(=O)CCN(C2CCCC2)c2nc(Nc3ccc(S(=O)(=O)N4CCCCC4)cc3)ncc21: > 4.00

# return recorded pIC50 for input COc1cc(C(=O)NC2CCCN(C)C2)ccc1Nc1ncc2c(n1)N(C1CCCC1)CC(C)(C)C(=O)N2C (stereo not shown)
> 6.00

# return recorded pIC50 for input `COc1cc(C(=O)NCCCCN2CCCC2)ccc1Nc1ncc2c(n1)N(C(C)C)CCC(=O)N2C`
> 6.52

# return recorded pIC50 for input `COc1cc(C(=O)NC(C)(C)CN2CCCC2)ccc1Nc1ncc2c(n1)N(C1CCCC1)CCC(=O)N2C`
> 6.00

* * *

- assay-target: recombinant Plk1 (Homo sapiens)
- assay-text: In Vitro Plk1 Enzyme Assay (SPA, GST-Cdc25C phosphorylation)
- condition-notes: ATP 64 nM, 90 minutes, read-out: IC50 (Plk1 enzyme inhibition)
property-name: IC50

Known IC50 results, listed for orientation:
CCN1CCC(NC(=O)c2ccc(Nc3ncc4c(n3)N(C3CCCC3)CC3(CC3)C(=O)N4C)c(Cl)c2)CC1: < 0.3 µM
CN1C(=O)CCN(C2CCCC2)c2nc(Nc3ccccc3-c3ccccc3)ncc21: < 100 µM
CN1CCC(NC(=O)c2cc(Cl)c(Nc3ncc4c(n3)N(C3CCCC3)CCC(=O)N4C)cc2F)CC1: < 0.3 µM
COc1cc(C(=O)NCC2CCCN(C)C2)ccc1Nc1ncc2c(n1)N(C1CCCC1)CCC(=O)N2C (centres unmarked): < 0.3 µM

# return recorded IC50 for input `COc1cc(C(=O)NCCN(C)C)ccc1Nc1ncc2c(n1)N(C1CCCC1)CCC(=O)N2C`
< 0.3 µM

# return recorded IC50 for input `COc1cc(N2CCCN(C)CC2)ccc1Nc1ncc2c(n1)N(C1CCCC1)CCC(=O)N2C`
< 1 µM

# return recorded IC50 for input `COc1cc(C(=O)Nc2ccccc2)ccc1Nc1ncc2c(n1)N(C1CCCC1)CCC(=O)N2C`
< 100 µM

# return recorded IC50 for input `CCN(CC)CCCCNC(=O)c1ccc(Nc2ncc3c(n2)N(C2CCCC2)CCC(=O)N3C)c(OC)c1`
< 0.3 µM

* * *

- assay-target: recombinant Plk1 (Homo sapiens, UniProt P53350)
- Sequence (P53350 whole entry): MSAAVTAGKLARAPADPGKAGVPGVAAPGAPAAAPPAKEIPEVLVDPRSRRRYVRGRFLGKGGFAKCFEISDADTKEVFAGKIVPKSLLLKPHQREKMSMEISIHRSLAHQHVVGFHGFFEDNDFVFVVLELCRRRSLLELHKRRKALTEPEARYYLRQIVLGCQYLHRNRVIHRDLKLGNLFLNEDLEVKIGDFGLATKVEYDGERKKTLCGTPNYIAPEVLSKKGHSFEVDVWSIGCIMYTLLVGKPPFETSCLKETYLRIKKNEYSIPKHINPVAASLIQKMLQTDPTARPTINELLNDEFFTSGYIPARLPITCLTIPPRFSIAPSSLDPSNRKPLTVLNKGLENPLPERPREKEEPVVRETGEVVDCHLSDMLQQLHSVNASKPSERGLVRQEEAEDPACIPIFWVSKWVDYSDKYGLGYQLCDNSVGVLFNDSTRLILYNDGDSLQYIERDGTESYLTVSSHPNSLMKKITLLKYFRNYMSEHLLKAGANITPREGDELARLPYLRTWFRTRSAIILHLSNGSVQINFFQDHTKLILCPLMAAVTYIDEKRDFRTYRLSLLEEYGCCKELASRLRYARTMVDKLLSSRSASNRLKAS
- assay-text: In Vitro Plk1 Enzyme Assay (SPA, GST-Cdc25C phosphorylation)
- condition-notes: ATP 64 nM, 90 minutes, read-out: IC50 (Plk1 enzyme inhibition)
property-name: IC50

Known IC50 results, listed for orientation:
CSc1cccc(Nc2ncc3c(n2)N(C2CCCC2)CCC(=O)N3C)c1 [Example 163]: < 100 µM
COc1cc(C(=O)NCC(C)(C)CN(C)C)ccc1Nc1ncc2c(n1)N(C1CCCC1)CC1(CC1)C(=O)N2C [Example 386]: < 0.3 µM
CN1CCC(NC(=O)c2ccc(Nc3ncc4c(n3)N(c3ccccc3)CCC(=O)N4)c(Cl)c2)CC1 [Example 248]: < 100 µM
COc1cc(N(C)C2CCN(C)CC2)ccc1Nc1ncc2c(n1)N(C1CCCC1)CCC(=O)N2C [Example 104]: < 0.3 µM
CCc1cccc(Nc2ncc3c(n2)N(C2CCCC2)CCC(=O)N3C)c1 [Example 166]: < 100 µM

# return recorded IC50 for input COc1cc(C(=O)NCCN(C)C)ccc1Nc1ncc2c(n1)N(C(C)C)CCC(=O)N2C [Example 207]
< 0.3 µM

# return recorded IC50 for input CNS(=O)(=O)c1ccccc1Nc1ncc2c(n1)N(C1CCCC1)CCC(=O)N2C [Example 155]
< 100 µM

# return recorded IC50 for input COc1cc(OC2CCN(C)C2)ccc1Nc1ncc2c(n1)N(C1CCCC1)CCC(=O)N2C (centres unmarked) [Example 114]
< 0.3 µM
